phage binding ELISA signal values by entry
# experimentalSystem: T1, PSMA Fab (biotinylated (site not stated))
# T1 construct: Biotinylated PSMA Fab captured on neutravidin coated plates in the phage ELISA; also called Anti-PSMA Fab; 006 PSMA Fab
# experimentDescription: clonal phage ELISA on biotinylated PSMA Fab captured on neutravidin; anti-M13 HRP detection
Where no end group is shown, it is not given here.
measuredEndpoint: phage binding ELISA signal

• VEPLCVPSWMCQGI (not shown: pIII filament protein of the bacteriophage) [Phage-3216] = 1.97
• IPRACIPAWMCQGF (not shown: pIII filament protein of the bacteriophage) [Phage-3220] = 1.96
• LDLRCQPPWMCMGF (not shown: pIII filament protein of the bacteriophage) [Phage-3215] = 1.97
• DVHLCKPSWMCAGF (cysteine pairing not given here; also: fused to phage pIII, sequence not given here, not shown: pIII filament protein of the bacteriophage) [Phage-3218] = 1.96
• GEVLCRPIWMCNGF (not shown: pIII filament protein of the bacteriophage) [Phage-3225] = 1.95
• IELFCKPAWMCDGF (not shown: pIII filament protein of the bacteriophage) [Phage-3217] = 1.97
• ITALCKPAWMCDGF (not shown: pIII filament protein of the bacteriophage) [Phage-3224] = 1.96
• PQWMCKPEWMCNGF (not shown: pIII filament protein of the bacteriophage) [Phage-3223] = 1.96
• LQILCKPQWMCEGL (not shown: pIII filament protein of the bacteriophage) [Phage-3221] = 1.96
• MAPYCVPSWMCWGF (not shown: pIII filament protein of the bacteriophage) [Phage-3214] = 1.97
• DQVMCKPIWMCEGF (not shown: pIII filament protein of the bacteriophage) [Phage-3219] = 1.96
• AIAMCVPSWMCTGL (cysteine pairing not given here; also: fused to phage pIII, sequence not given here, not shown: pIII filament protein of the bacteriophage) [Phage-3213] = 1.97
• MELKCVPKWMCAGF (cysteine pairing not given here; also: fused to phage pIII, sequence not given here, not shown: pIII filament protein of the bacteriophage) [Phage-3222] = 1.96
